Entries and their growth inhibition
Assay: NCI Yeast Anticancer Drug Screen. Data for the bub3 strain (AID 167)
Details: S. cerevisiae bub3 mutant strain, at 50.0 µM, stronger effect = higher value
The panel holds about 79,000 compounds, 15% with a hit somewhere; the sample as a whole holds those more often.
Lab book: enter the figure in %, no units written.

Return growth inhibition (reported value) for this compound: [O-][N+](CCO)(CCO)Cc1ccccc1
9.65

Kindly consider the entry below.
Return growth inhibition (reported value) for this compound: CC(c1ccccc1)N1COc2cc3c(cc2C1)OCN(C(C)c1ccccc1)C3 (stereo not drawn)
-6.8

---

Entries and their growth inhibition
Assay: NCI Yeast Anticancer Drug Screen. Data for the bub3 strain (AID 167)
Conditions: S. cerevisiae bub3 mutant strain, at 50.0 µM, stronger effect = higher value
This is part of a sample that, as a whole, favours compounds with a hit. Of some 79,000 tested, about 15% had one in any assay.
Lab book: enter the figure in %, no units written.

Past entries and their recorded results:
Return growth inhibition (reported value) for this compound: CC(NC(=O)NCCCl)c1cccc2ccccc12 (stereo not given)
-8.25

Return growth inhibition (reported value) for this compound: CC(C)(O)/C=C\P(C)(=O)c1ccccc1 (stereo not given)
-32.5

Return growth inhibition (reported value) for this compound: O=C(CCCO)c1nc2ccccc2s1
11.8

Return growth inhibition (reported value) for this compound: O=C(O)C1Cc2c([nH]c3ccccc23)C(c2ccccc2)N1 (stereo not given)
-16.8

Return growth inhibition (reported value) for this compound: OCC(O)C(O)Cc1cnc(C(O)C(O)C(O)CO)cn1 (stereo not given)
-9.45

Kindly consider the entry below.
Return growth inhibition (reported value) for this compound: COc1cc(C2c3cc4c(cc3OC(C)(OC)C2C(C)=O)OCO4)cc(OC)c1O (stereo not given)
-1.2
